Each recorded value in this set is attributed to the domain aggregation screens of Martell et al. (2025).

# measurementDescription: soluble fraction after stress (log2 fold change); higher = more stays soluble; pooled small domains, quantitative proteomics;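 also: 20 min heating vs room temperature control held 20 min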
# assayContext: stress: 75 degC
parameterMeasured: soluble fraction (log2)
# respond with the number and nothing more

For the sequence shown here, HMELNDEELIKGIQELLTKIGYDPGEINGVLGIKTSSAISAFQQSRNKAITGEADLDLLVQLQIELRKITT , give the reported soluble fraction (log2).
-1.86

---

# measurementDescription: soluble fraction after stress (log2 fold change); higher = more stays soluble; pooled small domains, quantitative proteomics
# assayContext: stress: 75 degC
Respond with 1.0 for soluble fraction (log2) values of -1 and above, 0.0 for values below.

Before answering, review these 5 worked examples.
residueSequence: HMAQLTPREREVLVLIAEGKSNKEIADQLNIGVRTIETHRERIMRRLNIHSVAGLTKYAIANGLVTL
discreteLabel: 1.0

residueSequence: HMGSKDLPFSTFMSEIDKGNITSVDIRGNEIQGTFANGTKFRTYSPNYPNLVEKLNGKGVSITAGPV
discreteLabel: 1.0

residueSequence: HMTVEVFQSLVQTFREMSPRKAASILEELKRDLAVEILLHMPEDGVAAILARMDPARAARLTEQLALEKD
discreteLabel: 0.0

residueSequence: HMTHPAHLARIGALIRSARQHEGLTQAQLAELLGTSQSAIHRIEQGGQNITLDMLTRISAALDSEIVTIG
discreteLabel: 0.0

residueSequence: HMSQIANLLLSKNIKVNNQNIIYYETVLKYLPNNEKKEFFINAMKNNIYFTEEEIKNFGNIFN
discreteLabel: 0.0

Quick check: does HMPAAPVFLQKDLLDAGLIGQADSAARREKLGKILGIGYGNGKVMLQRLNSFGIERDAFEQAVQE have soluble fraction (log2) greater than or equal to -1?
1.0

Could you do the same for HMSDGHLIKVLEVLDGGEAFLGRTANGGTARFSLGQLADIRRGSVVFVSEDRWEVVPDSAWPEI , please?
0.0

Could you do the same for HMGIAERKEKQKLEIRNAILEASRKLIVEEGFEKVTMRKIADLIEYSPTTVYLYFKDKNEILFHLHQ , please?
0.0
